Measured growth, listed per entry for reference.
- Test system: 786-0 renal
- measurement.protocol: NCI-60 one-dose screen, 48 h (100 = growth as untreated, 0 = no growth, -100 = all killed)
- experimental.context: 10 µM unless noted
The panel holds about 83,000 compounds, 20% with a hit somewhere; the sample as a whole holds those more often. Calls of active or inactive are those of the source. Rule for the calls: active = growth percent below 10; inactive = the rest.

{"compound": "COc1cc(NC(C)CCCN)c2ncccc2c1Sc1ccc(Cl)cc1 (configuration not stated)", "growth": "63.7% (inactive)"}
{"compound": "CCCCCCCCCCC(C(O)c1ccccc1)N1CCCCC1 (configuration not stated)", "growth": "29% (inactive)"}
{"compound": "COC1=CC(c2ccc[nH]2)=N/C1=C\\c1[nH]c(C)c(C(=O)CCCCCCCCC(=O)O[C@H]2CC[C@H]3C4CCc5cc(O)ccc5C4CC[C@]23C)c1C (some centres not stated)", "growth": "19.9% (inactive)"}
{"compound": "CC(C)CC(NC(=O)OCC1c2ccccc2-c2ccccc21)C(=O)O (configuration not stated)", "growth": "98% (inactive)"}
{"compound": "C/C(=N\\OC(=O)Nc1ccccc1)c1ccccc1", "growth": "99.3% (inactive)"}
{"compound": "C=CCn1c(SCC(=O)Nc2ccc(/C(C)=N\\O)cc2)nnc1-c1cc(-c2ccccc2)nc2ccccc12", "growth": "45.2% (inactive)"}
{"compound": "N#Cc1c(N)n(C2OC(CO)C(O)C2O)c2ncnc(N)c12 (configuration not stated)", "growth": "-7.63% (active)"}
{"compound": "CC1=NC(c2ccc(Cl)cc2)C2=C(N1)/C(=C/c1ccc(Cl)cc1)CCC2 (configuration not stated)", "growth": "92.7% (inactive)"}
{"compound": "F", "growth": "-1.01% [6.87 mM] (active)"}
{"compound": "CCN(CC)Cc1cc(Nc2ccnc3cc(Cl)ccc23)cc(-c2ccc(Cl)cc2)c1O", "growth": "55% (inactive)"}
{"compound": "NC(=Nc1ccccc1)SCCCSC(N)=Nc1ccccc1", "growth": "102% (inactive)"}
{"compound": "CN(C)c1ccc(N2Cc3ccccc3OC3=C2C(=O)c2c(O)ccc(O)c2C3=O)cn1", "growth": "-88.9% (active)"}
{"compound": "CC1=C(C(=O)Nc2ccc(F)cc2)C(c2ccc(C)cc2)C2=C(CC(C)(C)CC2=O)N1 (configuration not stated)", "growth": "97.2% (inactive)"}
{"compound": "COc1ccc(CCN2COc3c([C@@H](C)CCC=C(C)C)ccc(C)c3C2)cc1OC", "growth": "52.4% (inactive)"}
{"compound": "O=C(Nc1ccc(Cl)c(C(F)(F)F)c1)c1ccc(Nc2ccc(Cl)nn2)cc1", "growth": "50.9% (inactive)"}
{"compound": "Cc1ccc2nc(CN(CCN(Cc3nc4ccc(C)cc4[nH]3)Cc3nc4ccc(C)cc4[nH]3)Cc3nc4ccc(C)cc4[nH]3)[nH]c2c1", "growth": "-97.3% (active)"}
{"compound": "O=C(OCc1ccc2c(Br)cc(Br)c(O)c2n1)c1cc2ccccc2[nH]1", "growth": "-78.2% (active)"}
{"compound": "CC(C)COC(=O)NC(C)(C)C", "growth": "98.1% (inactive)"}
{"compound": "CC1C2CCC(C2)C1COCCOCCO (configuration not stated)", "growth": "104% (inactive)"}
{"compound": "COc1cc2c(cc1OCCCOc1cc3c(cc1OC)C(=O)N1CCC[C@H]1C=N3)C=CC(C)(C)O2", "growth": "102% (inactive)"}
{"compound": "Cc1cc(O)c(C2=NN(c3ccc(S(N)(=O)=O)cc3)C(c3ccc(Cl)cc3)C2)c(C)c1Cl (configuration not stated)", "growth": "43.3% (inactive)"}
{"compound": "CO[C@@]12[C@@H]3NC3CN1C1=C(C(=O)C(N)=C(C)C1=O)[C@@H]2COC(N)=O (some centres not stated)", "growth": "-3.82% (active)"}
{"compound": "CC(=O)c1c(O)c(C)c(O)c2c1OC1=CC(=O)/C(=C(/C)N)C(=O)C12C (configuration not stated)", "growth": "98.3% (inactive)"}
{"compound": "COc1ccc(-c2nsc3c2NC(=O)CC3c2cccc(F)c2)cc1 (configuration not stated)", "growth": "80% (inactive)"}
{"compound": "COc1ccc(NC(=O)/C=C/c2ccc(Cl)c(Cl)c2)cn1", "growth": "85.6% (inactive)"}
{"compound": "O=C(O)C1[S][Sb]([CH](C(=O)O)[CH](C(=O)O)[Sb]2[S]C(C(=O)O)C(C(=O)O)[S]2)[S]C1C(=O)O (configuration not stated)", "growth": "93.7% (inactive)"}
{"compound": "Cc1c(C)c(C)c([N+](=O)[O-])c([N+](=O)[O-])c1C", "growth": "93.6% (inactive)"}
{"compound": "CC(C)[C@H](CN)NC[C@H](C)NS(=O)(=O)c1ccc(C(C)(C)C)cc1", "growth": "90.3% (inactive)"}
{"compound": "Clc1cn2cc(-c3ccc(Cl)c(Cl)c3Cl)nc2s1", "growth": "99.9% (inactive)"}
{"compound": "N#Cc1c(N)c(C(=O)c2ccc3c(c2)OCCO3)n2c1CCCC2", "growth": "53% (inactive)"}
{"compound": "COc1cc(OC)cc(-c2n/c(=C\\c3c(O)[nH]c4ccc(Cl)cc34)cc3c2=Nc2ccccc2-3)c1", "growth": "39.3% (inactive)"}
{"compound": "Cc1nc2c(-c3cnc(N)nc3)nc(N3CCOCC3)nc2n1C(C)C", "growth": "-8.16% (active)"}
{"compound": "N=c1n(Cc2ccccc2)c(N)cc(=O)n1Cc1ccccc1", "growth": "19.2% (inactive)"}
{"compound": "CCN(CC)c1ccc(C(=N)c2ccc(N(C)C)cc2)cc1", "growth": "7.03% (active)"}
{"compound": "COc1cc2cc(C(=O)Nc3ccccc3)c(N)nc2cc1OC", "growth": "21.2% (inactive)"}
{"compound": "Cc1cccc(C(=O)O)n1", "growth": "112% (inactive)"}
{"compound": "CN(C)CCOc1nc2c3cccnc3cc(-c3cccc(Cl)c3)c2c2ncccc12", "growth": "21.8% (inactive)"}
{"compound": "Nc1nc(N)c2c(n1)NC(c1sc(Cl)nc1Cl)CC(c1ccc3c(c1)OCO3)=N2 (configuration not stated)", "growth": "38.1% (inactive)"}
{"compound": "C=C(C)C1CCC2(C(=O)O)CCC3(C)C(CCC4C5(C)CCC(O)C(C)(C)C5CCC43C)C12 (configuration not stated)", "growth": "-66.5% (active)"}
{"compound": "O=C(Nc1cccc(Cl)c1)Nc1cc(C(F)(F)F)ccc1Cl", "growth": "8.47% (active)"}
{"compound": "CCCCNCC(O)c1cc(-c2ccc(C(F)(F)F)cc2)nc(-c2ccc(C(F)(F)F)cc2)c1 (configuration not stated)", "growth": "-78.7% (active)"}
{"compound": "COc1cccc(NC(=O)[C@H](C(C)C)n2c(=O)[nH]c3ccccc3c2=O)c1", "growth": "105% (inactive)"}
